All figures here come from the RNAGym collection of RNA variant scans (doi:10.7554/elife.80360).

B1: HDV Ribozyme (parent)
chain: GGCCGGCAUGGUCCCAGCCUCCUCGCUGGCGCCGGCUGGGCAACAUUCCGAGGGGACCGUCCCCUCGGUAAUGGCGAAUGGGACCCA

# Variants of: B1
# experiment.description: self-cleavage, relative activity (ratio to wild type); higher = more cleavage; co-transcriptional
measurement.label: self-cleavage

Q: Read the entry G6A C30A and write its reported self-cleavage.
Result: 0.0421

Q: Look up self-cleavage of C14G C57G and report it.
Result: 0.782

Q: Assign self-cleavage to the following record: C26G G67A
Result: 0.696

Q: Given the variant U65A A78U , write its reported self-cleavage.
Result: 0.396

Q: For the variant C84A A87G , give its reported self-cleavage.
Result: 0.61

Q: Name the recorded self-cleavage of the item C36G A56G in your answer.
Result: 0.0594

Q: Give the reported self-cleavage for this variant. C36U G82C
Result: 0.269

Q: Give a short answer stating reported self-cleavage for G1A G82C .
Result: 0.133

Q: For the variant G11U U47C , give its reported self-cleavage.
Result: 0.156

Q: Using known records, supply self-cleavage for C33G C36A
Result: 0.107

Q: State its self-cleavage for this variant: G35C G76A
Result: 0.514

Q: Quote self-cleavage reported for C13U A71U please.
Result: 0.494

Q: Give recorded self-cleavage. G10U G59U
Result: 0.905

Q: Look up and report measured self-cleavage for this entry: G10U G17A
Result: 0.704

Q: Give me measured self-cleavage, please, for this variant: U60G A87C
Result: 0.831

Q: Return value of self-cleavage for input C36G A42C , no commentary.
Result: 0.0811

Q: For the variant C14U A16C , give its reported self-cleavage.
Result: 1.07

Q: Give recorded self-cleavage. C41U U72G
Result: 0.534

Q: Give self-cleavage for the following variant: G2A A77C
Result: 0.0437

Q: Identify measured self-cleavage associated with C22A G35A
Result: 0.0386

Q: Retrieve self-cleavage measured for C36A G67C and print it.
Result: 0.208

Q: Look up and state reported self-cleavage for U60C G82A
Result: 0.427

Q: Give self-cleavage for the following variant: G6U C44A
Result: 0.213

Q: Report self-cleavage for G5C A78C
Result: 0.0615

Q: Specify measured self-cleavage for C4G C44G .
Result: 0.0449

Q: Determine its reported self-cleavage: C7G C48A
Result: 0.262

Q: Tell me self-cleavage reported for C41A
Result: 0.94

Q: Note self-cleavage for the variant shown: U47A G80C
Result: 0.138

Q: Please give measured self-cleavage of the following entry: G5A C19U
Result: 0

Q: Report self-cleavage, nothing else, for this variant: G5C G67A
Result: 0.353

Q: Return reported self-cleavage. Input variant: G17C C33A
Result: 0.0437

Q: Look up and state reported self-cleavage for C30A C85U
Result: 0.554

Q: For the variant U20G U27C , give its measured self-cleavage value.
Result: 0

Q: Give a short answer stating reported self-cleavage for U9A A87G .
Result: 1.13

Q: Give recorded self-cleavage. G10A C21A
Result: 0

Q: Respond only with self-cleavage recorded for C22U C30G
Result: 0.126

Q: Quote self-cleavage reported for G38U C49G please.
Result: 0.0739

Q: Entry C15U G25U needs its self-cleavage filled in; supply it.
Result: 0.0875

Q: # return recorded self-cleavage for entry G50U A56G
Result: 0.943

Q: Indicate the recorded self-cleavage value for this variant: A8U A56G
Result: 0.957

Q: Tell us which self-cleavage value is on record for G17C G31A
Result: 0.0652

Q: Given C4U C62U , respond with its self-cleavage.
Result: 0.656

Q: Tell me self-cleavage reported for G35C C66U
Result: 0.229

Q: Read the entry C3U C62U and write its reported self-cleavage.
Result: 0.762

Q: Please report self-cleavage for the following variant: G11C U69A
Result: 0.166

Q: Identify measured self-cleavage corresponding to C36G G73U
Result: 0.0326

Q: Give reported self-cleavage value for G11U U65C
Result: 0.19

Q: Tell me its self-cleavage given A8U G31C as the entry.
Result: 0.115

Q: Report self-cleavage, nothing else, for this variant: A8C C15U
Result: 0.604

Q: Identify measured self-cleavage corresponding to G74C A87G
Result: 0.291

Q: Fill in self-cleavage for record A43U C49G
Result: 0.516

Q: Identify measured self-cleavage associated with U47A G59A
Result: 0.746

Q: Name the recorded self-cleavage of the variant listed here: A45C C64A
Result: 0.426

Q: Determine its reported self-cleavage: G2C C75G
Result: 0.0314

Q: Provide self-cleavage value for the following variant: G53C G81A
Result: 0.369

Q: Answer with the recorded self-cleavage for the variant listed here: G11A G17U
Result: 0.251

Q: Determine from records and report self-cleavage for C13G U69C
Result: 0.111

Q: Output measured self-cleavage for this item: G74U A87G
Result: 0.473

Q: Check the records and state self-cleavage for U23C A71C
Result: 0.415

Q: Please give measured self-cleavage of the following entry: G39C G59U
Result: 0.147

Q: Indicate its recorded self-cleavage; the variant in question is U27A C84A
Result: 0.831

Q: Supply self-cleavage value. Item: C18G G29U
Result: 0.601

Q: Tell me measured self-cleavage for U23A G67A please.
Result: 0.782

Q: Supply recorded self-cleavage for C13A G73A here.
Result: 0.0863

Q: Dear colleague, please send me the reported self-cleavage for G31C C62U when you can.
Result: 0.386

Q: Determine its reported self-cleavage: A8U G59C
Result: 1.02

Q: Please look at this variant and report its self-cleavage: C58U C61A
Result: 1.21

Q: Hello, please tell me recorded self-cleavage for this one: G54A G73C
Result: 0.527

Q: Find the measured self-cleavage of G29U G34U and report it.
Result: 0.0519

Q: For the variant C18A G29A , report self-cleavage.
Result: 0.0604

Q: Entry G25C C61U needs its self-cleavage filled in; supply it.
Result: 0.0354

Q: Determine its reported self-cleavage: G39U U72C
Result: 0.0573

Q: Note self-cleavage for the variant shown: A8G C26U
Result: 1.16

Q: Specify measured self-cleavage for C58G C75U .
Result: 0.122

Q: Please look at this variant and report its self-cleavage: C32U U65C
Result: 0.91

Q: Provide measured self-cleavage value, entry: G17A C30G
Result: 0.631

Q: Hello, please tell me recorded self-cleavage for this one: G31A U65C
Result: 0.462

Q: Return self-cleavage for the following variant: C24U G28U
Result: 0.119

Q: Tell me measured self-cleavage for C66U G67U please.
Result: 0.972

Q: Using known records, supply self-cleavage for C13G G76U
Result: 0.104

Q: Output self-cleavage of C41U G54C
Result: 0.63

Q: Write down self-cleavage measured for item C3A G39A
Result: 0.067

Q: Please give the documented self-cleavage of G35U G40C
Result: 0.136

Q: Look up self-cleavage of G40C A71U and report it.
Result: 0.228

Q: Identify measured self-cleavage associated with G1U A43U
Result: 0.225

Q: For the variant G25U C62G , report self-cleavage.
Result: 0.253

Q: Return self-cleavage (reported value) for this variant: U27G A43C
Result: 0.166

Q: Provide measured self-cleavage value, entry: C30U G76U
Result: 0.805

Q: Hello, please tell me recorded self-cleavage for this one: G2C G82U
Result: 0

Q: Answer with reported self-cleavage of C36A G40A
Result: 0.234

Q: # return recorded self-cleavage for entry G11C U37G
Result: 0.101
